experiment: Permeability of the compound in PBS/EtOH buffer (70:30) incubated for 10 hrs by UV plate reader based PAMPA-BBB assay; type: ADME; conditions: read-out: permeability
Reported Papp at 10 h values are given for each entry in this list.
measured-quantity: Papp at 10 h (×10⁻⁶ cm/s)

| mol | numeric-value |
| --- | --- |
| COc1ccc(/C(=C\C=C\c2ccccc2)C(=O)N2CCN(c3ncccn3)CC2)cc1OC | 16.4 |
| COc1cc(/C=C/C=C(/C(=O)N2CCN(c3ncccn3)CC2)c2cccc(O)c2)ccc1O | 5.2 |
| COc1cc(/C=C/C=C(/C(=O)N2CCN(c3ncccn3)CC2)c2ccccc2)ccc1O | 15.3 |
| COc1cccc(/C=C/C=C(/C(=O)N2CCN(c3ncccn3)CC2)c2ccccc2)c1 | 10.2 |
| COc1cc(/C(=C\C=C\c2ccccc2)C(=O)N2CCN(c3ncccn3)CC2)ccc1O | 10.2 |
| O=C(/C(=C/C=C/c1cccc(O)c1)c1ccccc1)N1CCN(c2ncccn2)CC1 | 9.9 |
| O=C(/C(=C/C=C/c1ccccc1)c1ccc(O)cc1)N1CCN(c2ncccn2)CC1 | 8.3 |
| O=C(/C(=C/C=C/c1ccc(O)cc1)c1ccccc1)N1CCN(c2ncccn2)CC1 | 5.2 |
| COc1ccc(/C=C/C=C(/C(=O)N2CCN(c3ncccn3)CC2)c2ccccc2)cc1 | 15.7 |
| O=C(/C(=C/C=C/c1ccccc1)c1cccc(O)c1)N1CCN(c2ncccn2)CC1 | 14.5 |
| COc1ccc(/C=C/C=C(/C(=O)N2CCN(c3ncccn3)CC2)c2ccccc2)c(OC)c1 | 18.9 |
| COc1ccccc1/C=C/C=C(/C(=O)N1CCN(c2ncccn2)CC1)c1ccccc1 | 13.6 |
| COc1cc(/C=C/C=C(/C(=O)N2CCN(c3ncccn3)CC2)c2ccc(O)c(OC)c2)ccc1O | 5.3 |
